Some compounds, each annotated with its measured growth.
# Tested on: MOLT-4 leukemia
# Protocol Details: NCI-60 one-dose screen, 48 h (100 = growth as untreated, 0 = no growth, -100 = all killed)
# Test Conditions: 10 µM unless noted
This is part of a sample that, as a whole, favours compounds with a hit. Of some 83,000 tested, about 20% had one in any assay.
Value Kind: growth (%)

compound=Cc1nn(-c2ccccc2)c2nc3nc4c(c(N)c3c(-c3ccc(Cl)cc3)c12)CCC4 value_kind=growth observed_measurement=90.4
compound="Cc1c(C)n(CC(O)CNC2CCCCC2C)c2ccccc12 (stereo not given)" value_kind=growth observed_measurement=4.33
compound=O=C1/C(=C/c2ccc(F)cc2)CN(Cc2cn(CCNc3ccnc4cc(Cl)ccc34)nn2)C/C1=C\c1ccc(F)cc1 value_kind=growth observed_measurement=-18.4
compound=Nc1c(Br)cc(Br)cc1-c1n[nH]c(=O)[nH]c1=O value_kind=growth observed_measurement=65.8
compound=CCCN(CCC)c1ccc(/C=C/c2ccc3cc(OCC)ccc3n2)cc1 value_kind=growth observed_measurement=53
compound="CCCCC(O)Cn1ncc(C(=O)OCC)c1NC(=O)NCc1ccccc1C(F)(F)F (stereo not given)" value_kind=growth observed_measurement=93.9
compound=CCOC(=O)c1cc2c(n(C)c1=O)-c1cnn(-c3ccc(OC)cc3)c1CC2 value_kind=growth observed_measurement=94.2
compound="COc1cccc(C2CC(=O)Nc3cc4c(cc32)CCC4)c1OC (stereo not given)" value_kind=growth observed_measurement=14.8
compound=Clc1nc(-c2ccccn2)nc2sc3c(c12)CCCCCC3 value_kind=growth observed_measurement=67.7
compound=Nc1nc(-c2ccnc(Cl)c2)nn1-c1nc2ccccc2s1 value_kind=growth observed_measurement=119
